- study target: T1, soluble human FcRn (human, UniProt P55899 24-297; P61769 21-119, biotinylated (Sulfo-NHS-LC-Biotin) in the ELISA; amine-coupled to CM5 chip in SPR)
- T1 construct: also called shFcRn; biotinylated shFcRn
- T1 sequence (P55899 24-297 limits assumed, chain 1 of 2): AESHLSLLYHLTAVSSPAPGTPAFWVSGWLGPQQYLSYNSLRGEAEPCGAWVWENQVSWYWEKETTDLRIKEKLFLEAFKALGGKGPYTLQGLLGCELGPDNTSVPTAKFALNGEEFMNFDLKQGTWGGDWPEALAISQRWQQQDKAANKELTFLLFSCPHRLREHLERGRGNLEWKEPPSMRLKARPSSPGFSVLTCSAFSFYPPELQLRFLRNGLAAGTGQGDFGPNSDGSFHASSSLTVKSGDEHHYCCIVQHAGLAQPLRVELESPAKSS
- T1 sequence (P61769 21-119 limits assumed, chain 2 of 2): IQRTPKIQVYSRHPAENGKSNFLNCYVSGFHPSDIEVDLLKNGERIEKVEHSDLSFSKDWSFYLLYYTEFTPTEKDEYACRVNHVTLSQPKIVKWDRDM
- assay comment: ELISA, competitor human IgG
Bridge positions count the residues as written; N and C are the ends. Square brackets hold non-standard residues; d marks the D form. Ends that are not written are not given here. Pen = CC(C)(S)[C@H](N)C(=O)O
observed property: IC50 (µM)
Give just the numeric value; µM need not be written.

Before answering, review these 2 worked examples.
# binder, IC50 [µM]
data = [
    ("QRFXTGHFGXLYPCNGP (Pen at 4; Aib (aminoisobutyric acid) at 10; disulfide; C-terminal amide) [Peptide No. 46]", 2.4),
    ("QRF[Pen]TGHF[dA][dP]LYPCNGP-NH2 (disulfide 4-14; N-terminus assumed; SMILES CC(C)C[C@@H]1NC(=O)[C@H]2CCCN2C(=O)[C@@H](C)NC(=O)[C@H](Cc2ccccc2)NC(=O)[C@H](Cc2c[nH]cn2)NC(=O)CNC(=O)[C@H]([C@@H](C)O)NC(=O)[C@@H](NC(=O)[C@H](Cc2ccccc2)NC(=O)[C@H](CCCNC(=N)N)NC(=O)[C@@H](N)CCC(N)=O)C(C)(C)SSC[C@@H](C(=O)N[C@@H](CC(N)=O)C(=O)NCC(=O)N2CCC[C@H]2C(N)=O)NC(=O)[C@@H]2CCCN2C(=O)[C@H](Cc2ccc(O)cc2)NC1=O) [Peptide No. 149]", 3.7),
]

Field: next binder
Q: I would be grateful if you could share the reported IC50 for QRF[Pen]TGHF[dF]GPYPCNGP-NH2 (disulfide 4-14; N-terminus assumed; SMILES C[C@@H](O)[C@@H]1NC(=O)[C@@H](NC(=O)[C@H](Cc2ccccc2)NC(=O)[C@H](CCCNC(=N)N)NC(=O)[C@@H](N)CCC(N)=O)C(C)(C)SSC[C@@H](C(=O)N[C@@H](CC(N)=O)C(=O)NCC(=O)N2CCC[C@H]2C(N)=O)NC(=O)[C@@H]2CCCN2C(=O)[C@H](Cc2ccc(O)cc2)NC(=O)[C@@H]2CCCN2C(=O)CNC(=O)[C@@H](Cc2ccccc2)NC(=O)[C@H](Cc2ccccc2)NC(=O)[C@H](Cc2c[nH]cn2)NC(=O)CNC1=O) [Peptide No. 155] .
A: 39
